Origin of the recorded values: the RNAGym collection of RNA variant scans (doi:10.7554/elife.90254)

B1: LINE1-full (parent)
chain: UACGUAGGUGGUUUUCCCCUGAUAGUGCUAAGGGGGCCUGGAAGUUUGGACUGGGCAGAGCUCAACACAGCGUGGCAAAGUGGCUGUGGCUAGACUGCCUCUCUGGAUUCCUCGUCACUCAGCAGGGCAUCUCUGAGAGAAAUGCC

- Variants of: B1
- testMethodNotes: self-cleavage, relative activity (ratio to wild type); higher = more cleavage; in vitro, sequencing; the parent is a self-cleaving ribozyme
Rule: TRUE for self-cleavage not less than 0.4, FALSE for anything less.

{"changes": "U23C C51A", "class": "TRUE"}
{"changes": "C19U U52G", "class": "TRUE"}
{"changes": "U12C C84U", "class": "FALSE"}
{"changes": "A59G U100C", "class": "FALSE"}
{"changes": "U1C C63U", "class": "FALSE"}
{"changes": "G33A A59U", "class": "TRUE"}
{"changes": "A43G A57C", "class": "FALSE"}
{"changes": "C18U U85C", "class": "FALSE"}
{"changes": "A117G G126A", "class": "TRUE"}
{"changes": "C116U U132C", "class": "TRUE"}
{"changes": "A57G U119C", "class": "TRUE"}
{"changes": "U9C U12G", "class": "TRUE"}
{"changes": "A30G C103A", "class": "TRUE"}
{"changes": "U39A A50G", "class": "TRUE"}
{"changes": "U73A U112A", "class": "TRUE"}
{"changes": "G4A A94G", "class": "FALSE"}
{"changes": "A94G", "class": "FALSE"}
{"changes": "A59U U115C", "class": "TRUE"}
{"changes": "G35U A79G", "class": "TRUE"}
{"changes": "U13A U62C", "class": "FALSE"}
{"changes": "C98G U112C", "class": "FALSE"}
{"changes": "U5C U14C", "class": "TRUE"}
{"changes": "U73C G125U", "class": "TRUE"}
{"changes": "A77U G93A", "class": "FALSE"}
{"changes": "U13C U112C", "class": "TRUE"}
{"changes": "A77G G106A", "class": "TRUE"}
{"changes": "U20A U47A", "class": "TRUE"}
{"changes": "U26C G35A", "class": "TRUE"}
{"changes": "G4A A31G", "class": "TRUE"}
{"changes": "U14C G25C", "class": "TRUE"}
{"changes": "G34A U62C", "class": "FALSE"}
{"changes": "U15A U20G", "class": "TRUE"}
{"changes": "U39C C113G", "class": "TRUE"}
{"changes": "G60A A138U", "class": "FALSE"}
{"changes": "U87A U104A", "class": "FALSE"}
{"changes": "A43G C111U", "class": "TRUE"}
{"changes": "U1C G34U", "class": "TRUE"}
{"changes": "C19A A69G", "class": "TRUE"}
{"changes": "U109A A142G", "class": "TRUE"}
{"changes": "U15A C90A", "class": "FALSE"}
{"changes": "C71U U73C", "class": "FALSE"}
{"changes": "C111U U130C", "class": "TRUE"}
{"changes": "U46C A57C", "class": "FALSE"}
{"changes": "U46C U91A", "class": "TRUE"}
{"changes": "G54A A69G", "class": "FALSE"}
